For each entry below, report its logD value.
Experiment: Lipophilicity (LogD), shake-flask octanol/buffer pH 7.4
Format: physicochemical
Details: octanol / 0.1M phosphate buffer pH 7.4
Enter the number alone.

# logD (compound: Cc1cc(O)cc(C)c1C[C@H](N)C(=O)N[C@H](C)C(=O)NC[C@H](N)Cc1ccccc1 [Example 2] ) is -0.2

Lab book: logD of Cc1cc(O)cc(C)c1C[C@H](N)C(=O)N[C@H](C)C(=O)NC[C@@H](N)Cc1ccccc1 [Example 1] noted as 0.05

* * *

Biological target: mu opioid receptor (UniProt P35372)
Experiment: Mu-opioid receptor agonist activity
Method: The ability of agonists to cause recruitment of beta-arrestin to the mu opioid receptor was measured using DiscoveRx PathHunter technology. […] The ability of mu opioid receptor agonists to inhibit forskolin stimulated cAMP production was measured in CHO cells recombinantly expressing the mu opioid receptor, using alphascreen technology as described in Nickolls et al., 2005, with the additional inclusion of 50 uM forskolin in the assay buffer. […]
PARAMETER MEASURED: pIC50
// returns pIC50 (minus log10 of molar concentration), number only

The observed pIC50 for `Cc1cc(O)cc(C)c1C[C@H](N)C(=O)N[C@H](C)C(=O)NC[C@H](N)Cc1ccccc1` when tested with mu opioid receptor (UniProt P35372) stands at 8.22

// pIC50 (mu opioid receptor (UniProt P35372)) for `Cc1cc(O)cc(C)c1C[C@H](N)C(=O)N[C@H](C)C(=O)NC[C@@H](N)Cc1ccccc1` = 8.01
